I'd appreciate it if you could supply fold reactivity over background (fold over background) values for the items below.
# target of assay: recombinant HA of influenza A H3 A/Sydney/97 (influenza A virus H3 A/Sydney/97)
# procedure details: recombinant HA ELISA (AttoPhos fluorescence, mean of triplicates)
Answers are plain numbers.

The recorded fold reactivity over background (fold over background) for entry TRL856 (antibody, V domains shown) VH: QVQLVESGGGLVQPGGSLRLSCAASGFTFSDYWMVWVRQAPGKGLVWVSRISSDGSTTSYADSVKGPFTISRDNAKNTLYLQMNSLRAEDTAVYYCARVATPYYYESGFDYWGQGALVTVSS VL: DIVLTQSPSVSVAPGQTARITCGGNDIGSKSVHWYQQKPGQAPVLVVFDDRDRPSGIPERFSGSNSGNTATLTISRVEAGDEADYYCQVWDITSDLVVFGGGTKLTVVG equals 1.3

More entries:
For this binder ( TRL053 (antibody, V domains shown) VH: QVQLVQSGAEVRKPGSSVKVSCKVSGGIIRKYAINWVRQAPGQGLEWMGGIIAIFNTANYAQKFQGRVTITADESTSTVYMELSSLRSEDTALYYCARGMNYYSDYFDYWGQGSLVTVSP VL: EIVLTQSPGTLSLSPGERATLSCRASQSVRSNNLAWYQHKPGQAPRLLIFGASSRATGIPDRFSGSGSGTDFTLTISRLEPEDFAVYYCQQYGSSPALTFGGGTKVEIKR ), measured fold reactivity over background (fold over background) is 1

From: patent US20170189529A1
